biological target: STAT5b-SH2 domain (Homo sapiens); test: Competitive fluorescence polarization (FP) assay, STAT5b-SH2 domain
Sequence (P51692 136-703): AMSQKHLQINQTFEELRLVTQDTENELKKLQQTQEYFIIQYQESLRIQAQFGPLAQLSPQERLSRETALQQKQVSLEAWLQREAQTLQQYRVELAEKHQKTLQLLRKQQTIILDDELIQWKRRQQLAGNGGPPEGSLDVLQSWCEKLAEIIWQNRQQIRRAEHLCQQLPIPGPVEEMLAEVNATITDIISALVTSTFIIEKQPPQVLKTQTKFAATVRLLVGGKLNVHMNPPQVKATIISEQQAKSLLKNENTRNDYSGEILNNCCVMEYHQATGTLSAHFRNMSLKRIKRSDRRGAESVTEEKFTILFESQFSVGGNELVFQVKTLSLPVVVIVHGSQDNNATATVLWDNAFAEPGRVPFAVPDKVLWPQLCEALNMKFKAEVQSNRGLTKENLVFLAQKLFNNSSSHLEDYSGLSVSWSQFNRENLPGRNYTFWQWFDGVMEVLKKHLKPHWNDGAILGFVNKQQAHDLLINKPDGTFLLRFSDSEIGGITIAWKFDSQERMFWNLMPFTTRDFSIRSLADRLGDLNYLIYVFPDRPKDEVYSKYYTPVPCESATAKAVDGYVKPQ
pKi: −log10 of the molar value. Where a SMILES comes first, the peptide text is derived from it. [ ]: non-standard residue; d: D form. The star is where a group is joined. 5FAM = O=C1OC2(c3ccc(O)cc3Oc3cc(O)ccc32)c2ccc(C(=O)*)cc21; pY = N[C@@H](Cc1ccc(OP(=O)(O)O)cc1)C(=O)O
The threshold is inclusive: pKi of exactly 5 counts as t; values below receive f.

Sample answers from the record:
compound=COC(=O)c1nsnc1NCn1cnnn1 study_target="STAT5b-SH2 domain (Homo sapiens)" group=f
compound="O=Cc1ccc(OP(=O)(O)O)cc1 [Compound 1, 4-Formylphenyl-dihydrogen-phosphate, reference compound]" study_target="STAT5b-SH2 domain (Homo sapiens)" group=f
compound=O=C(O)c1nonc1NCn1cccn1 study_target="STAT5b-SH2 domain (Homo sapiens)" group=f
compound=O=C(O)c1nonc1NCn1nnnc1-c1ccc(-c2ccccc2)cc1 study_target="STAT5b-SH2 domain (Homo sapiens)" group=t
compound="CC(=O)OC(C)OC(=O)c1nonc1NCn1cnnn1 (centres unmarked)" study_target="STAT5b-SH2 domain (Homo sapiens)" group=t
compound=COC(=O)c1nonc1NCn1nnnc1-c1cccc([N+](=O)[O-])c1 study_target="STAT5b-SH2 domain (Homo sapiens)" group=f

For the next question, use this compound.
In: // inclusive: pKi at least 5? input: CC(C)C[C@H](NC(=O)[C@H](Cc1ccc(OP(=O)(O)O)cc1)NC(=O)CNC(=O)c1ccc2c(c1)C(=O)OC21c2ccc(O)cc2Oc2cc(O)ccc21)C(=O)N[C@@H](CO)C(=O)N[C@@H](CC(C)C)C(=O)N1CCC[C@H]1C(=O)N1CCC[C@H]1C(=O)N[C@@H](Cc1c[nH]c2ccccc12)C(N)=O [Compound 2, Fluo-GY*LSLPPW-NH2, reference compound] (5FAM-G[pY]LSLPPW-NH2)
Out: t
